List of Δ F/F values.
# tested-on: human TAS2R1 (Homo sapiens)
# Construct: expressed in transfected cells; host or cells: HEK293T-Gα16gust44
# Sequence (Q9NYW7 1-299): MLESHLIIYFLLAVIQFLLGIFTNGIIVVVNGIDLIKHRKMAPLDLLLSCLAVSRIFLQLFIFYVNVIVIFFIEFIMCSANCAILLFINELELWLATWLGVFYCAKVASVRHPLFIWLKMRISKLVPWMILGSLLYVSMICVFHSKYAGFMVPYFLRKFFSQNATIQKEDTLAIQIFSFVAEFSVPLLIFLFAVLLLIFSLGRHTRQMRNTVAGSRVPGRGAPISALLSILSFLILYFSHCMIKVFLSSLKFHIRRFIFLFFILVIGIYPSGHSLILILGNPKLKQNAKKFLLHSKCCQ
# experiment: Calcium imaging assay (FLIPR), HEK293T-Gα16gust44 cells transfected with human TAS2R1
# Format: cell-based
# assay-conditions: conc. 0,001 mM; TAS2R1
assay-readout: Δ F/F

smiles_repr=C[C@H](CCC(=O)O)[C@H]1CC[C@H]2[C@@H]3[C@H](O)C[C@@H]4C[C@H](O)CC[C@]4(C)[C@H]3CC[C@]12C measured_value=0.01001
smiles_repr=C[C@H](CCC(=O)NCCS(=O)(=O)O)[C@H]1CC[C@H]2[C@@H]3[C@H](O)C[C@@H]4C[C@H](O)CC[C@]4(C)[C@H]3C[C@H](O)[C@]12C measured_value=0.004203
smiles_repr=C[C@H](CCC(=O)NCC(=O)O)[C@H]1CC[C@H]2[C@@H]3[C@H](O)C[C@@H]4C[C@H](O)CC[C@]4(C)[C@H]3C[C@H](O)[C@]12C measured_value=0.006338
smiles_repr=C[C@H](CCC(=O)O)[C@H]1CC[C@H]2[C@@H]3[C@@H](O)C[C@@H]4C[C@H](O)CC[C@]4(C)[C@H]3CC[C@]12C measured_value=0.007937

----------
# tested-on: human TAS2R4 (Homo sapiens, UniProt Q9NYW5)
# Construct: expressed in transfected cells; host or cells: HEK293T-Gα16gust44
# Sequence (Q9NYW5 whole entry): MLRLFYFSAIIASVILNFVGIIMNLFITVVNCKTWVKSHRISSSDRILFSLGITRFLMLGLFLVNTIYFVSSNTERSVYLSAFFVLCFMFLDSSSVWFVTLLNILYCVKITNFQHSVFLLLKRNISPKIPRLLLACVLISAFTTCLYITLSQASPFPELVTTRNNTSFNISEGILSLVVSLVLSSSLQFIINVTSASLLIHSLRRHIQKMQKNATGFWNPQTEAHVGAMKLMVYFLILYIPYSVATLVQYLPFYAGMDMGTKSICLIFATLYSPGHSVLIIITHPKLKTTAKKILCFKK
# experiment: Calcium imaging assay (FLIPR), HEK293T-Gα16gust44 cells transfected with human TAS2R4
# Type: cell-based
# assay-conditions: Time (s) 28.781 (TCA, TLCA: 28.782)
assay-readout: RLU, fluorescence trace (RLU)

compound="C[C@H](CCC(=O)O)[C@H]1CC[C@H]2[C@@H]3[C@@H](O)C[C@@H]4C[C@H](O)CC[C@]4(C)[C@H]3CC[C@]12C [Ursodeoxycholic Acid, ursodeoxycholic acid]" tested_on="human TAS2R4 (Homo sapiens, UniProt Q9NYW5)" measured_value=73.9776
compound="C[C@H](CCC(=O)O)[C@H]1CC[C@H]2[C@@H]3CC[C@@H]4C[C@H](O)CC[C@]4(C)[C@H]3C[C@H](O)[C@]12C [Deoxycholic Acid, deoxycholic acid]" tested_on="human TAS2R4 (Homo sapiens, UniProt Q9NYW5)" measured_value=38.1772
compound="C[C@H](CCC(=O)NCC(=O)O)[C@H]1CC[C@H]2[C@@H]3[C@H](O)C[C@@H]4C[C@H](O)CC[C@]4(C)[C@H]3C[C@H](O)[C@]12C [Glycocholic Acid, glycocholic acid]" tested_on="human TAS2R4 (Homo sapiens, UniProt Q9NYW5)" measured_value=304.257
compound="C[C@H](CCC(=O)NCCS(=O)(=O)O)[C@H]1CC[C@H]2[C@@H]3[C@H](O)C[C@@H]4C[C@H](O)CC[C@]4(C)[C@H]3C[C@H](O)[C@]12C [Taurocholic Acid, taurocholic acid]" tested_on="human TAS2R4 (Homo sapiens, UniProt Q9NYW5)" measured_value=122.11
compound="C[C@H](CCC(=O)O)[C@H]1CC[C@H]2[C@@H]3[C@H](O)C[C@@H]4C[C@H](O)CC[C@]4(C)[C@H]3C[C@H](O)[C@]12C [Cholic Acid, cholic acid]" tested_on="human TAS2R4 (Homo sapiens, UniProt Q9NYW5)" measured_value=116.69
compound="C[C@H](CCC(=O)NCCS(=O)(=O)O)[C@H]1CC[C@H]2[C@@H]3CC[C@@H]4C[C@H](O)CC[C@]4(C)[C@H]3CC[C@]12C [Taurolithocholic Acid, taurolithocholic acid]" tested_on="human TAS2R4 (Homo sapiens, UniProt Q9NYW5)" measured_value=22.993
